IC50 listing for selected molecules.
- Assay Target: Avi-KRAS WT (1-169) GppNHp/RAF1 RBD-3xFLAG (52-151) (Homo sapiens, UniProt P01116)
- Construct: Avi-KRAS WT (1-169)
- Sequence (P01116 1-169 isoform P01116-2): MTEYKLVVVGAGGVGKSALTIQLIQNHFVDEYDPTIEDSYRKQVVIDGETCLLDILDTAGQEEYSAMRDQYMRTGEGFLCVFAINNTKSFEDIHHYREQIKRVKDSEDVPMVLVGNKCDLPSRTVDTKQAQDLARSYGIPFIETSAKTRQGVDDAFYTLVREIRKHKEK
- Assay Method Text: Raf1-KRAS WT-GppNHP disruption HTRF assay (Biological Example 1)
- Type: binding
- Experimental Context: KRAS WT-GppNHp/RAF1 RBD HTRF

Given item CCN(c1nc(OC[C@@]23CCCN2C[C@H](F)C3)nc2c(F)c(-c3ccc(F)c4sc(N)c(C#N)c34)c(C(F)(F)F)cc12)[C@H]1CCN(C(=O)CC#N)C1 (atropisomer, axis not shown) , the value recorded as its IC50 is < 100 nM

Given item [2H]C1([2H])CN2C[C@H](F)C[C@]2(COc2nc(N(C)[C@@H]3CCN(C(=O)C4CC4)[C@@H]3C)c3cc(C(F)(F)F)c(-c4ccc(F)c5sc(N)c(C#N)c45)c(F)c3n2)C1 , the value recorded as its IC50 is < 100 nM

Given item C[C@@H]1[C@H](N(C)c2nc(OC[C@@]34CCCN3C[C@H](F)C4)nc3c(F)c(-c4ccc(F)c5sc(N)c(C#N)c45)c(C(F)(F)F)cc23)CCN1C(=O)C1CC1 (atropisomer, axis not shown) [Compound 333] , the value recorded as its IC50 is < 100 nM

Given item N#Cc1c(N)sc2c(F)ccc(-c3c(C(F)(F)F)cc4c(N5CCO[C@@H](CO)C5)nc(OC[C@@]56CCCN5C[C@H](F)C6)nc4c3F)c12 , the value recorded as its IC50 is < 100 nM

Now turn to the next molecule.
Given item CN(C)C(=O)c1nc2c(s1)CCN(c1nc(OCC34CCCN3CC(F)C4)nc3c(F)c(-c4ccc(F)c5sc(N)c(C#N)c45)c(C(F)(F)F)cc13)C2 (centres unmarked) , the value recorded as its IC50 is > 10000 nM

----------
- Assay Target: Avi-KRAS G12D (1-169) GppNHp/RAF1 RBD-3xFLAG (52-151) (Homo sapiens, UniProt P01116, G12D)
- Construct: Avi-KRAS G12D (1-169)
- Sequence (P01116 1-169 isoform P01116-2 G12D): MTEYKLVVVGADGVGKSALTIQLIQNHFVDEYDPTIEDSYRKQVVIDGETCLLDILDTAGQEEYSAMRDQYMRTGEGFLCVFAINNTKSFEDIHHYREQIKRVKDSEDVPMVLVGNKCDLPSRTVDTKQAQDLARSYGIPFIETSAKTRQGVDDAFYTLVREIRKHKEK
- Assay Method Text: Raf1-KRAS G12D-GppNHP disruption HTRF assay (Biological Example 1)
- Assay type: binding
- Experimental Context: KRAS G12D-GppNHp/RAF1 RBD HTRF
- Procedure: A protein:protein interaction (PPI) Homogeneous Time Resolved Fluorescence (HTRF) assay was used to determine the effectiveness of compounds of the present disclosure in disrupting KRAS protein and effector RAF1 binding. The assay buffer included: 50 mM Tris pH 7.5, 100 mM NaCl, 5 mM MgCl2, 0.1% BSA, 0.01% Tween, and 10% DMSO. The bead buffer included: 50 mM Tris pH 7.5, and 0.01% Tween 20. […] Data was reported as percentage of activity, with DMSO as 100%. Data was plotted and analyzed using Prism 8.
IC50 listing for selected compounds.

The following compounds have reported results that may help.
Given item CCN(c1nc(OC[C@@]23CCCN2C[C@H](F)C3)nc2c(F)c(-c3ccc(F)c4sc(N)c(C#N)c34)c(C(F)(F)F)cc12)[C@@H]1C[C@@H]2CCC(=O)N2C1 , the value recorded as its IC50 is 100 to 1000 nM

Given item CCN(c1nc(OC[C@@]23CCCN2C[C@H](F)C3)nc2c(F)c(-c3ccc(F)c4sc(N)c(C#N)c34)c(C(F)(F)F)cc12)[C@H]1CCN(C(=O)OC)C1 [Compound 394] , the value recorded as its IC50 is < 100 nM

Given item CN(C)C(=O)c1cc2n(n1)CCN(c1nc(OC[C@@]34CCCN3C[C@H](F)C4)nc3c(F)c(-c4ccc(F)c5sc(N)c(C#N)c45)c(C(F)(F)F)cc13)CC2 , the value recorded as its IC50 is 1000 to 10000 nM

New cases:
Given item CN(C)C(=O)[C@H]1CN(c2nc(OC[C@@]34CCCN3C[C@H](F)C4)nc3c(F)c(-c4ccc(F)c5sc(N)c(C#N)c45)c(C(F)(F)F)cc23)CCO1 , the value recorded as its IC50 is < 100 nM

Given item CCN(c1nc(OC[C@@]23CCCN2C[C@H](F)C3)nc2c(F)c(-c3ccc(F)c4sc(N)c(C#N)c34)c(C(F)(F)F)cc12)[C@@H]1CCN(C(=O)C(C)C)C1 , the value recorded as its IC50 is 100 to 1000 nM

----------
- Assay Target: Avi-KRAS G12V (1-169) GppNHp/RAF1 RBD-3xFLAG (52-151) (Homo sapiens, UniProt P01116, G12V)
- Construct: Avi-KRAS G12V (1-169)
- Sequence (P01116 1-169 isoform P01116-2 G12V): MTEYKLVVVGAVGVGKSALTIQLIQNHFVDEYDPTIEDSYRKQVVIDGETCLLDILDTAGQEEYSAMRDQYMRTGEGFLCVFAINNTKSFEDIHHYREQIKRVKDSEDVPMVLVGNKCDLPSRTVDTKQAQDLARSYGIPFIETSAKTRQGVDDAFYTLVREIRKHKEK
- Assay Method Text: Raf1-KRAS G12V-GppNHP disruption HTRF assay (Biological Example 1)
- Type: binding
- Experimental Context: KRAS G12V-GppNHp/RAF1 RBD HTRF
pIC50: −log10 of the molar value.
Endpoint Label: pIC50

The following molecules have reported results that may help.
Result for C[C@@H]1[C@H](N(C)c2nc(OC[C@@]34CCCN3C[C@H](F)C4)nc3c(F)c(-c4ccc(F)c5sc(N)c(C#N)c45)c(Cl)cc23)CCN1C(=O)C(C)(F)F , tested on Avi-KRAS G12V (1-169) GppNHp/RAF1 RBD-3xFLAG (52-151) (Homo sapiens, UniProt P01116, G12V), pIC50: 5.00 to 6.00

Result for CN(C)C(=O)c1cc2n(n1)CCN(c1nc(OC[C@@]34CCCN3C[C@H](F)C4)nc3c(F)c(-c4ccc(F)c5sc(N)c(C#N)c45)c(C(F)(F)F)cc13)C2 , tested on Avi-KRAS G12V (1-169) GppNHp/RAF1 RBD-3xFLAG (52-151) (Homo sapiens, UniProt P01116, G12V), pIC50: 6.00 to 7.00

Result for C[C@@H]1[C@H](N(C)c2nc(OC[C@@]34CCCN3C[C@H](F)C4)nc3c(F)c(-c4ccc(F)c5sc(N)c(C#N)c45)c(C(F)(F)F)cc23)CCN1C(=O)C1(C#N)CC1 , tested on Avi-KRAS G12V (1-169) GppNHp/RAF1 RBD-3xFLAG (52-151) (Homo sapiens, UniProt P01116, G12V), pIC50: 6.00 to 7.00

Result for CC(=O)N1CC[C@@H](N(C)c2nc(OC[C@@]34CCCN3C[C@H](F)C4)nc3c(F)c(-c4ccc(F)c5sc(N)c(C#N)c45)c(Cl)cc23)[C@H]1C , tested on Avi-KRAS G12V (1-169) GppNHp/RAF1 RBD-3xFLAG (52-151) (Homo sapiens, UniProt P01116, G12V), pIC50: 6.00 to 7.00

Now turn to the next molecule.
Result for CC(C)C(=O)N1CC[C@@](C)(N(C)c2nc(OC[C@@]34CCCN3C[C@H](F)C4)nc3c(F)c(-c4ccc(F)c5sc(N)c(C#N)c45)c(C(F)(F)F)cc23)[C@H]1C , tested on Avi-KRAS G12V (1-169) GppNHp/RAF1 RBD-3xFLAG (52-151) (Homo sapiens, UniProt P01116, G12V), pIC50: < 5.00

----------
IC50 listing for selected molecules.
- Assay Target: Avi-KRAS WT (1-169) GppNHp/RAF1 RBD-3xFLAG (52-151) (Homo sapiens, UniProt P01116)
- Construct: Avi-KRAS WT (1-169)
- Assay Method Text: Raf1-KRAS WT-GppNHP disruption HTRF assay (Biological Example 1)
- Assay type: binding
- Experimental Context: KRAS WT, GppNHp-loaded; Table 11

The following molecules have reported results that may help.
Given item CN(c1nc(OCC23CCCN2CCC3)nc2c(F)c(-c3ccc(F)c4sc(N)nc34)c(C(F)(F)F)cc12)[C@H]1C[C@H](CO)C1 (atropisomer, axis not shown) , the value recorded as its IC50 is 1 to 10 µM

Given item CCN(C)c1nc(OC[C@@]23CCCN2C[C@H](F)C3)nc2c(F)c(-c3ccc(F)c4sc(N)c(C#N)c34)c(C(F)(F)F)cc12 (single isomer, unassigned) [Compound 197] , the value recorded as its IC50 is > 10 µM

Given item CN(c1nc(OC[C@@]23CCCN2C[C@H](F)C3)nc2c(F)c(-c3ccc(F)c4sc(N)c(C#N)c34)c(C(F)(F)F)cc12)C1CCOCC1 , the value recorded as its IC50 is 0.1 to 1 µM

Given item CC(=O)N1C[C@H]2CCN(c3nc(OC[C@@]45CCCN4C[C@H](F)C5)nc4c(F)c(-c5ccc(F)c6sc(N)c(C#N)c56)c(C(F)(F)F)cc34)[C@H]2C1 , the value recorded as its IC50 is 0.1 to 1 µM

Given item CN1C[C@H](F)C[C@H]1COc1nc(N(C)[C@H]2C[C@@H](O)C2)c2cc(C(F)(F)F)c(-c3ccc(F)c4sc(N)nc34)c(F)c2n1 (atropisomer, axis not shown) , the value recorded as its IC50 is 1 to 10 µM

Given item CN(c1nc(OC[C@@]23CCCN2C[C@H](F)C3)nc2c(F)c(-c3ccc(F)c4sc(N)c(C#N)c34)c(C(F)(F)F)cc12)[C@H]1C[C@@H](O)C1 [Compound 18] , the value recorded as its IC50 is < 0.1 µM

New cases:
Given item CC(=O)N1CC[C@H](N(C)c2nc(OC[C@@H]3C[C@@H](F)CN3C)nc3c(F)c(-c4ccc(F)c5sc(N)c(C#N)c45)c(C(F)(F)F)cc23)[C@@H]1C , the value recorded as its IC50 is > 10 µM

Given item CC(=O)N1C[C@H](F)[C@@H](N(C)c2nc(OC[C@@]34CCCN3C[C@H](F)C4)nc3c(F)c(-c4ccc(F)c5sc(N)c(C#N)c45)c(C(F)(F)F)cc23)C1 , the value recorded as its IC50 is 0.1 to 1 µM

Given item Nc1nc2c(-c3c(C(F)(F)F)cc4c(NC[C@@H]5CC[C@H](CO)C5)nc(OCC56CCCN5CCC6)nc4c3F)ccc(F)c2s1 , the value recorded as its IC50 is > 10 µM

Given item CC(=O)N1CC[C@@H](N(C)c2nc(OC[C@@]34CCCN3C[C@H](F)C4)nc3c(F)c(-c4ccc(F)c5sc(N)c(C#N)c45)c(C(F)(F)F)cc23)[C@@H]1C , the value recorded as its IC50 is 0.1 to 1 µM

Given item Nc1nc2c(-c3c(C(F)(F)F)cc4c(N5CCC(O)C5)nc(OCC56CCCN5CCC6)nc4c3F)ccc(F)c2s1 (centres unmarked) , the value recorded as its IC50 is 1 to 10 µM
